- Test target: delF508-CFTR (Homo sapiens, UniProt P13569, DEL508-508)
- Construct: expressed in transfected cells
- Sequence (P13569 with tags, fused parts or gaps DEL508-508): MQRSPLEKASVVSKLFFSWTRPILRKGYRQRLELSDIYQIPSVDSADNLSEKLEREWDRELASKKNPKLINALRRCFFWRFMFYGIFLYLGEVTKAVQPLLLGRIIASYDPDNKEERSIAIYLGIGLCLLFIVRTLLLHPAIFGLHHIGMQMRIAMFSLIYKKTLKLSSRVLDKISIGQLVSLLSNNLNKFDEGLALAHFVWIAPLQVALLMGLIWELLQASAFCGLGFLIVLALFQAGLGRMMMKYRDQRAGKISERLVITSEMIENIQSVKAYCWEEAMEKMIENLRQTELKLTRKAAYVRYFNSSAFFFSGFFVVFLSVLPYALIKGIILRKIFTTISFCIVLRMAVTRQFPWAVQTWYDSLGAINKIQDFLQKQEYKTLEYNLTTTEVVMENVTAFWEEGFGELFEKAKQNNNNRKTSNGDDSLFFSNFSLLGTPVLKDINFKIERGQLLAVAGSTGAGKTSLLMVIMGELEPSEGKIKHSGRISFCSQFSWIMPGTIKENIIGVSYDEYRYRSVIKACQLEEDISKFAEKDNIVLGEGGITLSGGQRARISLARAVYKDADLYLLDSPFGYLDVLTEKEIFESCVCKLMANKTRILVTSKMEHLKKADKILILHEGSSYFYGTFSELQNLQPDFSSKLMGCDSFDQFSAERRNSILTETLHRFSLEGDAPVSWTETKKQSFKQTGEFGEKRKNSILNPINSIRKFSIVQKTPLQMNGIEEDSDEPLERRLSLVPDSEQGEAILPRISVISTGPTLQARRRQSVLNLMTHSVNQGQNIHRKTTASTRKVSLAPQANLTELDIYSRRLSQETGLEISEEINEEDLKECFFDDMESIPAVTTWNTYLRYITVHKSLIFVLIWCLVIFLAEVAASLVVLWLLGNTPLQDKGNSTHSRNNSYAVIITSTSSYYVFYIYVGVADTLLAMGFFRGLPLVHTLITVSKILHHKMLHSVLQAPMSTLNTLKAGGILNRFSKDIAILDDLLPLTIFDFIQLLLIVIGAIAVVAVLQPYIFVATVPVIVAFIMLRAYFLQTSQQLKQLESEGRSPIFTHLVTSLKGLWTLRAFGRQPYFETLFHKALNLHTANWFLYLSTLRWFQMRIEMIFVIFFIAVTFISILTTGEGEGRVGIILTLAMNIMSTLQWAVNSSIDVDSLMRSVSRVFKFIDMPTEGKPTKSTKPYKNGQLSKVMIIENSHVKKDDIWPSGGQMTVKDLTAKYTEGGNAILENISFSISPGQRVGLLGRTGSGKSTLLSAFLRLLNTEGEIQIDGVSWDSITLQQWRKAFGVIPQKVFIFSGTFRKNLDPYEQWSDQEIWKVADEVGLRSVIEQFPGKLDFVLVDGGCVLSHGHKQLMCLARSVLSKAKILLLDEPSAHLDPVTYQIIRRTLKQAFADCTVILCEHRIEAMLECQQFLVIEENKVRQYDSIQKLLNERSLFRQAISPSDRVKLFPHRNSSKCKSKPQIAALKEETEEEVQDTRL
- Assay procedure: Measurement of delF508-CFTR-HRP surface expression in CFBE41o- cells
- Format: cell-based
- Condition info: HRP-tagged delF508-CFTR surface expression, CFBE41o- cells, 24 h with compound, 10-point curve, highest concentration 10 μM
- Description: Measurement of deIF508-CFTR-HRP Surface Expression in CFBE41o-Cells This assay quantifies the cell surface expressions of the mutant CFTR channel using an extracellular HRP tag. […] The median activity for the lowest concentration of the compounds on each assay plate was calculated and this value was used to normalize the signal for each well on the respective plate. […] The median value was determined and used to calculate compound activities as described below. […]
pEC50: −log10 of the molar value.
Measurement kind: pEC50

>>> assay_value("O=S1(=O)Nc2ccc(C(F)(F)F)c(n2)-c2ccccc2CCCCCN(CCN2CCNCC2)c2cccc1n2")
6.31
>>> assay_value("O=S1(=O)Nc2ccc(C(F)(F)F)c(n2)-c2ccccc2CCCCCN(CCN2CCCC2)c2cccc1n2")
5.92

[1] CN1CCCCCCc2ccccc2-c2nc(ccc2C(F)(F)F)NS(=O)(=O)c2cccc1n2
[2] O=C(O)CCCCCN1CCCCCc2ccccc2-c2nc(ccc2Cl)NS(=O)(=O)c2cccc1n2
Ask | Name the one with the greater pEC50 value, either 1 or 2 as given. Your choice should be expressed through its label.
Reply | 1

* * *

- Test target: delF508-CFTR (Homo sapiens, UniProt P13569, DEL508-508)
- Construct: expressed in transfected cells
- Assay procedure: Measurement of delF508-CFTR-HRP surface expression in CFBE41o- cells
- Assay type: cell-based
- Condition info: CFBE41o-; efficacy relative to reference compound 3-(6-(1-(2,2-difluorobenzo[d][1,3]dioxol-5-yl)cyclopropane-1-carboxamido)-3-methylpyridin-2-yl)benzoic acid; read-out: DelF508-CFTR-HRP Amax %
Measurement kind: Emax (%)

>>> assay_value("O=S1(=O)Nc2ccc(C(F)(F)F)c(n2)-c2cc(F)ccc2CCCCCNc2cccc1n2")
580

[a] O=C(O)CN1CCCCCCc2ccccc2-c2nc(ccc2C(F)(F)F)NS(=O)(=O)c2cccc1n2
[b] O=S1(=O)Nc2ccc(C(F)(F)F)c(n2)-c2ccccc2CCCCNc2cccc1n2
[c] O=C(O)CC[C@H]1CCCCc2ccccc2-c2nc(ccc2C(F)(F)F)NS(=O)(=O)c2cccc(n2)N1
Ask | Could you please sort these 3 entries by Emax from high to low? Please reply with the labels ordered as requested. Many thanks.
Reply | a, c, b

* * *

- Test target: delF508-CFTR (Homo sapiens, UniProt P13569, DEL508-508)
- Construct: expressed in transfected cells
- Assay procedure: Measurement of delF508-CFTR-HRP surface expression in CFBE41o- cells
- Assay type: cell-based
- Condition info: CFBE41o-; efficacy relative to reference compound 3-(6-(1-(2,2-difluorobenzo[d][1,3]dioxol-5-yl)cyclopropane-1-carboxamido)-3-methylpyridin-2-yl)benzoic acid; read-out: DelF508-CFTR-HRP Amax %
Measurement kind: Emax (%)

>>> assay_value("O=S1(=O)Nc2ccc(C(F)(F)F)c(n2)-c2cccnc2O[C@H]2CCC[C@H](CCC2)Oc2cccc1n2")
205
>>> assay_value("O=C(O)CN1CCCCOc2ccccc2-c2nc(ccc2C(F)(F)F)NS(=O)(=O)c2cccc1n2")
74.4
>>> assay_value("O=S1(=O)Nc2ccc(C(F)(F)F)c(n2)-c2ccccc2CCCOCCNc2cccc1n2")
356

[I] O=S1(=O)Nc2ccc(C(F)(F)F)c(n2)-c2ccccc2CCCCCN(CC(O)CO)c2cccc1n2 (stereo not shown)
[II] O=S1(=O)Nc2ccc(Cl)c(n2)-c2ccccc2CCCCCOc2cccc1n2
[III] O=S1(=O)Nc2ccc(Cl)c(n2)-c2cccnc2NCCCCCNc2cccc1n2
Ask | Arrange the 3 compounds from largest to smallest Emax. I'd appreciate it if you listed the labels in the requested order.
Reply | II, I, III

* * *

- Test target: delF508-CFTR (Homo sapiens, UniProt P13569, DEL508-508)
- Construct: expressed in transfected cells
- Assay procedure: Measurement of delF508-CFTR-HRP surface expression in CFBE41o- cells
- Format: cell-based
- Condition info: HRP-tagged delF508-CFTR surface expression, CFBE41o- cells, 24 h with compound, 10-point curve, highest concentration 10 μM
pEC50: −log10 of the molar value.
Measurement kind: pEC50

Known pEC50 results, listed for orientation:
>>> assay_value("O=C(O)CCCN1CCCCCCCCCc2ccccc2-c2nc(ccc2C(F)(F)F)NS(=O)(=O)c2cccc1n2")
6.65
>>> assay_value("O=S1(=O)Nc2ccc(C(F)(F)F)c(n2)-c2ccccc2CCCCCNc2cccc1n2")
6.29
>>> assay_value("O=C(O)CCCN1CCCCCCCc2ccccc2-c2nc(ccc2C(F)(F)F)NS(=O)(=O)c2cccc1n2")
6.55
>>> assay_value("O=S1(=O)Nc2ccc(C(F)(F)F)c(n2)-c2ccccc2CCCCCCCCN(CCCO)c2cccc1n2")
6.59
>>> assay_value("O=S1(=O)Nc2ccc(C(F)(F)F)c(n2)-c2cccnc2NCCCCNc2cccc1n2")
5.79
>>> assay_value("O=C(O)CCCN1CCCCCc2ccccc2-c2nc(ccc2C(F)(F)F)NS(=O)(=O)c2cccc1n2")
6.22

[I] O=C(O)C1(CN2CCOCCCc3ccccc3-c3nc(ccc3C(F)(F)F)NS(=O)(=O)c3cccc2n3)CC1
[II] O=S1(=O)Nc2ccc(C(F)(F)F)c(n2)-c2ccccc2CCCCNc2cccc1n2
Ask | Sorting ascending by pEC50, which comes first: I or II ? Write down the label of the entry you select.
Reply | I
(I: 5.88, II: 6.34)

* * *

- Test target: delF508-CFTR (Homo sapiens, UniProt P13569, DEL508-508)
- Construct: expressed in transfected cells
- Assay procedure: Measurement of delF508-CFTR-HRP surface expression in CFBE41o- cells
- Type: cell-based
- Condition info: CFBE41o-; efficacy relative to reference compound 3-(6-(1-(2,2-difluorobenzo[d][1,3]dioxol-5-yl)cyclopropane-1-carboxamido)-3-methylpyridin-2-yl)benzoic acid; read-out: DelF508-CFTR-HRP Amax %
Measurement kind: Emax (%)

Examples with their reported Emax follow.
>>> assay_value("O=S1(=O)Nc2ccc(C(F)(F)F)c(n2)-c2cccnc2NCCCCNc2cccc1n2")
159
>>> assay_value("O=S1(=O)Nc2ccc(C(F)(F)F)c(n2)-c2ccccc2CCCCCN(CCCO)c2cccc1n2")
517

[I] O=C(O)C1(CN2CCCCCc3ccccc3-c3nc(ccc3C(F)(F)F)NS(=O)(=O)c3cccc2n3)CC1
[II] CC1(C)O[C@@H](CO)[C@H](CN2CCCCCc3ccccc3-c3nc(ccc3C(F)(F)F)NS(=O)(=O)c3cccc2n3)O1
Ask | Given I and II , report the one with the higher recorded Emax. Your answer should be the label attached to the chosen record.
Reply | I
(I: 737%, II: 448%)

* * *

- Test target: delF508-CFTR (Homo sapiens, UniProt P13569, DEL508-508)
- Construct: expressed in transfected cells
- Assay procedure: Measurement of delF508-CFTR-HRP surface expression in CFBE41o- cells
- Assay type: cell-based
- Condition info: HRP-tagged delF508-CFTR surface expression, CFBE41o- cells, 24 h with compound, 10-point curve, highest concentration 10 μM
- Protocol: Measurement of deIF508-CFTR-HRP Surface Expression in CFBE41o-Cells This assay quantifies the cell surface expressions of the mutant CFTR channel using an extracellular HRP tag. […] The median activity for the lowest concentration of the compounds on each assay plate was calculated and this value was used to normalize the signal for each well on the respective plate. […] The median value was determined and used to calculate compound activities as described below. […]
pEC50: −log10 of the molar value.
Measurement kind: pEC50

Here are 6 compounds together with their reported answers.
>>> assay_value("CCN1CCCCCc2ccccc2-c2nc(ccc2C(F)(F)F)NS(=O)(=O)c2cccc1n2")
6.19
>>> assay_value("O=C(O)CCCCN1CCCCCCc2ccccc2-c2nc(ccc2C(F)(F)F)NS(=O)(=O)c2cccc1n2")
6.53
>>> assay_value("O=C(O)CN1CCCCCCc2ccccc2-c2nc(ccc2C(F)(F)F)NS(=O)(=O)c2cccc1n2")
5.85
>>> assay_value("O=S1(=O)Nc2ccc(C(F)(F)F)c(n2)-c2ccccc2CCCCC(CCCO)Oc2cccc1n2 (centres unmarked)")
6.41
>>> assay_value("O=S1(=O)Nc2ccc(C(F)(F)F)c(n2)-c2cccnc2OCCCCCOc2cccc1n2")
5.86
>>> assay_value("O=S1(=O)Nc2ccc(C(F)(F)F)c(n2)-c2ccccc2COCCCNc2cccc1n2")
5.87

[P] COc1ccc2nc1-c1ccccc1CCCCCN(CCCCO)c1cccc(n1)S(=O)(=O)N2
[Q] O=C(O)CC[C@H]1CCCCc2ccccc2-c2nc(ccc2C(F)(F)F)NS(=O)(=O)c2cccc(n2)N1
Ask | In the pair P and Q , the larger recorded pEC50 belongs to which? // return label of chosen record
Reply | Q

Data origin, for the record: patent US20220071971A1
